System: Hepatocyte
Protocol Text: Reduction of glucose production in mouse hepatocytes after 6 hrs by glucose oxidase assay
Format: functional, cell-based
pEC50: −log10 of the molar value.
Assay Readout: pEC50

>  <Smiles Data>
O=C(Nc1cc(Br)cc2[nH]ncc12)NS(=O)(=O)c1cccc(Cl)c1

>  <Assay Readout>
pEC50

>  <Obs Value>
4.64

$$$$
>  <Smiles Data>
COCCc1sc(S(=O)(=O)NC(=O)Nc2cc(Br)cc(N)n2)cc1C

>  <Assay Readout>
pEC50

>  <Obs Value>
5.10

$$$$
>  <Smiles Data>
COCCc1sc(S(=O)(=O)NC(=O)Nc2cc(Br)cc(NCC(F)(F)F)n2)cc1C

>  <Assay Readout>
pEC50

>  <Obs Value>
4.85

$$$$
>  <Smiles Data>
Cc1cc(C(F)(F)F)cc(NC(=O)NS(=O)(=O)c2cc(C)c(CCO)s2)n1

>  <Assay Readout>
pEC50

>  <Obs Value>
5.08

$$$$
>  <Smiles Data>
COCCc1sc(S(=O)(=O)NC(=O)Nc2cc(Br)cc3[nH]ncc23)cc1C

>  <Assay Readout>
pEC50

>  <Obs Value>
5.21

$$$$
>  <Smiles Data>
COCCc1sc(S(=O)(=O)NC(=O)Nc2cc(C(F)(F)F)ccn2)cc1C

>  <Assay Readout>
pEC50

>  <Obs Value>
4.72

$$$$
>  <Smiles Data>
COCCc1sc(S(=O)(=O)NC(=O)Nc2cc(Br)cc3nccn23)cc1C

>  <Assay Readout>
pEC50

>  <Obs Value>
4.29

$$$$
>  <Smiles Data>
O=C(Nc1cc(Cl)cc(Cl)c1)NS(=O)(=O)c1cccc(Cl)c1

>  <Assay Readout>
pEC50

>  <Obs Value>
4.08

$$$$
>  <Smiles Data>
CNC(=O)Nc1cc(SC)cc(NC(=O)NS(=O)(=O)c2cc(C)c(CCOC)s2)n1

>  <Assay Readout>
pEC50

>  <Obs Value>
5.10

$$$$
>  <Smiles Data>
O=C(Nc1cc(Br)cc2[nH]ccc12)NS(=O)(=O)c1cccc(Cl)c1

>  <Assay Readout>
pEC50

>  <Obs Value>
4.39

$$$$
>  <Smiles Data>
CC(=O)OCCc1sc(S(=O)(=O)NC(=O)Nc2cc(C(F)(F)F)c(F)c(N)n2)cc1C

>  <Assay Readout>
pEC50

>  <Obs Value>
5.57

$$$$
>  <Smiles Data>
CC(=O)OCCc1sc(S(=O)(=O)NC(=O)Nc2cc(C(F)(F)F)cc(C)n2)cc1C

>  <Assay Readout>
pEC50

>  <Obs Value>
5.29

$$$$

====

Protocol Text: Plasma concentration in mouse after 6 hrs
Format: ADME, cell-free
// concentration at 6 h lookup, one value per entry

>  <Smiles Data>
COCCc1sc(S(=O)(=O)NC(=O)Nc2cc(C(F)(F)F)c(F)c(N)n2)cc1C

>  <concentration at 6 h (ng/mL)>
4090

$$$$
>  <Smiles Data>
Cc1cc(C(F)(F)F)cc(NC(=O)NS(=O)(=O)c2cc(C)c(CCO)s2)n1

>  <concentration at 6 h (ng/mL)>
6800

$$$$
>  <Smiles Data>
COCCc1sc(S(=O)(=O)NC(=O)Nc2cc(C(F)(F)F)cc(C)n2)cc1C

>  <concentration at 6 h (ng/mL)>
2790

$$$$

====

System: Mus musculus
Protocol Text: Antidiabetic activity in db/db C57BLKS mouse assessed as reduction of liver glycogen level at 100 mg/kg, po administered 4 hrs after food removal measured after 6 hrs postdose relative to control
Format: functional
Set-up: scale not given: the % may be the effect or the level left

>  <Smiles Data>
CC(=O)OCCc1sc(S(=O)(=O)NC(=O)Nc2cc(C(F)(F)F)cc(C)n2)cc1C

>  <Activity / %>
5

$$$$
>  <Smiles Data>
Cc1cc(C(F)(F)F)cc(NC(=O)NS(=O)(=O)c2cc(C)c(CCO)s2)n1

>  <Activity / %>
8

$$$$
>  <Smiles Data>
COCCc1sc(S(=O)(=O)NC(=O)Nc2cc(C(F)(F)F)cc(C)n2)cc1C

>  <Activity / %>
33

$$$$
>  <Smiles Data>
COCCc1sc(S(=O)(=O)NC(=O)Nc2cc(C(F)(F)F)c(F)c(N)n2)cc1C

>  <Activity / %>
18

$$$$

====

Item-by-item account of pIC50
Tested System: Fructose-1,6-bisphosphatase 1 (Mus musculus)
Sequence (Q9QXD6 whole entry): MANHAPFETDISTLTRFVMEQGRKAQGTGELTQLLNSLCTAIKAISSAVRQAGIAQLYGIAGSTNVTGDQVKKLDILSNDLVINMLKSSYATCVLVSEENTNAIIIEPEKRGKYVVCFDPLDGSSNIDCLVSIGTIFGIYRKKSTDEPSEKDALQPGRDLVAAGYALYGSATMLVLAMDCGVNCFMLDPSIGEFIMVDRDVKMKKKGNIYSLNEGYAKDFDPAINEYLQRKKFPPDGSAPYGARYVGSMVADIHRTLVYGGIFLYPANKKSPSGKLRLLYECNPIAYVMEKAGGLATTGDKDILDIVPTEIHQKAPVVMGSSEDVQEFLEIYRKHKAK
pIC50: −log10 of the molar value.

>  <Smiles Data>
COCCc1sc(S(=O)(=O)NC(=O)Nc2cc(C(F)(F)F)ccn2)cc1C

>  <pIC50>
5.08

$$$$
>  <Smiles Data>
COCCc1sc(S(=O)(=O)NC(=O)Nc2cc(Br)cc3nccn23)cc1C

>  <pIC50>
5.10

$$$$
>  <Smiles Data>
CNC(=O)Nc1cc(OC)cc(NC(=O)NS(=O)(=O)c2cc(C)c(CCOC)s2)n1

>  <pIC50>
5.59

$$$$
>  <Smiles Data>
COCCc1sc(S(=O)(=O)NC(=O)Nc2cc(SC)cc(N)n2)cc1C

>  <pIC50>
5.05

$$$$
>  <Smiles Data>
COCCc1sc(S(=O)(=O)NC(=O)Nc2cc(Br)cc(NCC(F)(F)F)n2)cc1C

>  <pIC50>
5.43

$$$$
>  <Smiles Data>
CNC(=O)Nc1cc(Br)cc(NC(=O)NS(=O)(=O)c2cc(C)c(CCOC)s2)n1

>  <pIC50>
6.00

$$$$
>  <Smiles Data>
Cc1cc(S(=O)(=O)NC(=O)Nc2cc(C(F)(F)F)c(F)c(N)n2)sc1CCO

>  <pIC50>
5.40

$$$$
>  <Smiles Data>
Cc1cc(C(F)(F)F)cc(NC(=O)NS(=O)(=O)c2cc(C)c(CCO)s2)n1

>  <pIC50>
5.40

$$$$
>  <Smiles Data>
COCCc1sc(S(=O)(=O)NC(=O)Nc2cc(Br)cc3[nH]ncc23)cc1C

>  <pIC50>
5.77

$$$$
>  <Smiles Data>
CC(=O)OCCc1sc(S(=O)(=O)NC(=O)Nc2cc(C(F)(F)F)c(F)c(N)n2)cc1C

>  <pIC50>
5.46

$$$$
>  <Smiles Data>
COCCc1sc(S(=O)(=O)NC(=O)Nc2cc(Br)cc(N)n2)cc1C

>  <pIC50>
5.82

$$$$

====

Protocol Text: Intrinsic clearance in human microsomes
Assay type: ADME, Microsome
Measured microsomal CLint, listed per entry for reference.

>  <Smiles Data>
Cc1cc(C(F)(F)F)cc(NC(=O)NS(=O)(=O)c2cc(C)c(CCO)s2)n1

>  <Units Label>
µL/min/mg

>  <microsomal CLint>
28

$$$$
>  <Smiles Data>
COCCc1sc(S(=O)(=O)NC(=O)Nc2cc(C(F)(F)F)c(F)c(N)n2)cc1C

>  <Units Label>
µL/min/mg

>  <microsomal CLint>
10

$$$$

====

System: Hepatocyte
Protocol Text: Reduction of glucose production in mouse hepatocytes after 6 hrs by glucose oxidase assay
Assay type: functional, cell-based
pEC50: −log10 of the molar value.
Lab note: compare pEC50 against 5. Equal or greater, write met. Smaller, write not met.

>  <Smiles Data>
COCCc1sc(S(=O)(=O)NC(=O)Nc2cc(SC)cc(N)n2)cc1C

>  <Class Name>
met

$$$$
>  <Smiles Data>
COCCc1sc(S(=O)(=O)NC(=O)Nc2cc(C(F)(F)F)cc(C)n2)cc1C

>  <Class Name>
met

$$$$
>  <Smiles Data>
CNC(=O)Nc1cc(Br)cc(NC(=O)NS(=O)(=O)c2cc(C)c(CCOC)s2)n1

>  <Class Name>
met

$$$$
>  <Smiles Data>
COCCc1sc(S(=O)(=O)NC(=O)Nc2cc(OC)cc(N)n2)cc1C

>  <Class Name>
not met

$$$$
>  <Smiles Data>
O=C(Nc1ncc(Br)s1)NS(=O)(=O)c1cccc(Cl)c1

>  <Class Name>
not met

$$$$
>  <Smiles Data>
Cc1cc(S(=O)(=O)NC(=O)Nc2cc(C(F)(F)F)c(F)c(N)n2)sc1CCO

>  <Class Name>
met

$$$$

====

Test system: Mus musculus
Protocol Text: Antidiabetic activity in db/db C57BLKS mouse assessed as reduction of plasma glucose level at 100 mg/kg, po administered 4 hrs after food removal measured after 6 hrs postdose relative to control
Format: functional
Parameters: scale not given: the % may be the effect or the level left

>  <Smiles Data>
CC(=O)OCCc1sc(S(=O)(=O)NC(=O)Nc2cc(C(F)(F)F)cc(C)n2)cc1C

>  <Activity [%]>
29

$$$$
>  <Smiles Data>
COCCc1sc(S(=O)(=O)NC(=O)Nc2cc(C(F)(F)F)cc(C)n2)cc1C

>  <Activity [%]>
38

$$$$
>  <Smiles Data>
COCCc1sc(S(=O)(=O)NC(=O)Nc2cc(C(F)(F)F)c(F)c(N)n2)cc1C

>  <Activity [%]>
31

$$$$
>  <Smiles Data>
Cc1cc(C(F)(F)F)cc(NC(=O)NS(=O)(=O)c2cc(C)c(CCO)s2)n1

>  <Activity [%]>
36

$$$$
